System: SNU-16
Test: In vitro growth inhibition of SNU-16 cells
Type: cell-based
Settings: Homo sapiens, FGFR2 amp
Assay Metric: IC50 (nM)

As a guide, the following entries are already answered.
Molecule	Target Entity	Uom	IC50
COc1cc2nccc(Oc3ccc(NC(=O)Nc4cc(C(C)(C)C)nn4C)c(Cl)c3Cl)c2cc1C(N)=O [Compound 38]	SNU-16	nM	2.03
COc1cc2nccc(Oc3ccc(NC(=O)Nc4cc(C(C)(C)C)n[nH]4)c(Cl)c3)c2cc1C(N)=O [Compound 25]	SNU-16	nM	1.95

(P) COCCOc1cc2nccc(Oc3ccc(NC(=O)Nc4cc(C(C)(C)C)n[nH]4)c(Cl)c3)c2cc1NC(C)=O [Compound 66]
(Q) CCN1CCN(c2ccc(Nc3cc(N(C)C(=O)Nc4c(Cl)c(OC)cc(OC)c4Cl)ncn3)cc2)CC1 [BGJ398, reference compound]
(R) CN1CCN(CCCOc2cc3nccc(Oc4ccc(NC(=O)Nc5cc(C(C)(C)C)n[nH]5)c(Cl)c4Cl)c3cc2C(N)=O)CC1 [Compound 95]
Hey, quick one: sort these by IC50, largest value first please. Write the labels, ordered according to the request.
R, Q, P

Taken from patent US10800741B2.
